Data credit: the supplement of paper PMC6555819

system: RARb:RXRa (NR concentration 270 nM, RXRa partner concentration 90 nM); experiment: PBM binding z-score (relative to random genomic background probes); higher = stronger binding; sequences stand for … in GC…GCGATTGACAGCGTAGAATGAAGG
Label Fulfilled for high-side PBM binding z-score (at or above 2) and Not fulfilled for low-side PBM binding z-score (below it).

The examples below pair each entry with its known result.
q: Hi team, for ATCTCTAGGTAACAAGTTGAGTGAAAGAGAGGAC , is the recorded PBM binding z-score at or above 2?
a: Not fulfilled

q: How about TCTTGTAGATCTAGCAGGTTAAGAAAGCCTGAGT ?
a: Not fulfilled

q: How about ATACCAAGGTGATCGTGAGGTCGTTGAAACTAAC ?
a: Not fulfilled

q: How about CTGACTGGGGCATAAGGTTACCATAAGCCAGCCC ?
a: Not fulfilled

q: How about CCTAGCAGGCCAGGGTCACTCACGCATTTCGCTT ?
a: Fulfilled

q: How about ATCGAAAGGTCGGGAGGTGAGTATACAGAAAGGC ?
a: Fulfilled

q: How about CTACCAAGGTGAACAATGTCGTTGATTACTATTC ?
a: Not fulfilled

q: How about GATACAGGGTCAAGGCCAGAGTCCGCGTATTGAT ?
a: Fulfilled

Others:
q: Hi team, for CATACAGGGGCAGCTAGGCCAGAGTAGGGACGGC , is the recorded PBM binding z-score at or above 2?
a: Not fulfilled

q: How about CCTGCTAGGTCAGGGTCAGCTAATCTACAGTATG ?
a: Fulfilled

q: How about CCTACTGTGCCAAGGTCATTGATCAGTCAAAGCA ?
a: Fulfilled

q: How about GCTAGCCGGCCATTTGGGTCACTCAATGACGGGC ?
a: Not fulfilled

q: How about CCGACAGGGGCAAAGGTTACCATACTCAGTACGA ?
a: Fulfilled

q: How about CGTCAAATTTCAAGGTAACGTAACAGAAAGCAGC ?
a: Not fulfilled

q: How about GTACCAAGGTGAATAGGACGTTGATGAGTAGGCG ?
a: Not fulfilled

q: How about TCTATTAGTTTATTAGGGCAACCGAAACAGCGGA ?
a: Not fulfilled

q: How about CAAACTAGGTCCAGGTCAAAGTCGGTTTGTGCCA ?
a: Fulfilled

q: How about GCTCGGAGGACAAGGACAGAGCTTTGTCCGTAGA ?
a: Not fulfilled

q: How about CCAAGCAGGCCAGGGTCACTCAAGCATTTCGCTT ?
a: Fulfilled

q: How about ATCGAAAGATCGAGGTGAGTATAGAGAAAGGGAA ?
a: Not fulfilled

q: How about CCTAGCAGGCCAATCAGGGTCACTCAAGGCTTGA ?
a: Fulfilled

q: How about CCTACTGGGCCAAGGTCATTGATCAGTCAAAGCA ?
a: Fulfilled

q: How about TCGAGTACGTTAGGGGCATTCAGAATGGCGTCGA ?
a: Not fulfilled

q: How about CGGCCAAGGTCAGCAGGTCAGTGAAAGCGACGTG ?
a: Fulfilled

q: How about CCTTACGGGTCACTGACAGGTTATAGCCTTTGGA ?
a: Fulfilled

q: How about CCTTACGGGTCACTGCCAGGTTATAGCATTTGGA ?
a: Fulfilled
